Hi there, I'd appreciate the recorded IC50 for every entry that follows.
Tested on: HIV-1 (NL4-3 strain)
protocol.notes: microbe, parasite or virus in culture
Format: cell-based
reported.conditions: Human immunodeficiency virus 1, NL43, 100% normal human serum (NHS); MT4-GFP cells infected with HIV-1 NL4-3; IP or IC50 from 4-parameter dose response curve; read-out: WILD TYPE CELL ASSAY Viking IP (100% NHS)

Completed entries (count: 6):
compound	IC50
COCCO[C@@]12CCCC[C@]1(C)C(=O)c1c(O)c(=O)c(C(=O)NCc3ccc(F)cc3F)cn1C2	137 nM
C[C@]12CCCO[C@@H]1Cn1cc(C(=O)NCc3ccc(F)cc3F)c(=O)c(O)c1C2=O (racemic)	235 nM
CC12CCCC1(O)Cn1cc(C(=O)NCc3ccc(F)cc3F)c(=O)c(O)c1C2=O (stereo not shown)	343 nM
CC1(C)CCC[C@]2(C)C(=O)c3c(O)c(=O)c(C(=O)NCc4ccc(F)cc4F)cn3C[C@]12O	105 nM
COCC[C@@]1(C)C(=O)c2c(O)c(=O)c(C(=O)NCc3ccccc3F)cn2C[C@@H]1OC	126 nM
C[C@]12CCCO[C@H]1Cn1cc(C(=O)NCc3ccc4c(c3)OCO4)c(=O)c(O)c1C2=O (single isomer, unassigned)	> 8400 nM

We now examine a further compound.
Entry `COCO[C@]12CCCC[C@@]1(C)C(=O)c1c(O)c(=O)c(C(=O)NCc3ccc(F)cc3F)cn1C2` , IC50 reported as 858 nM

###

Test system: HIV-1 (NL4-3 strain)
protocol.notes: microbe, parasite or virus in culture
Assay type: cell-based
reported.conditions: Human immunodeficiency virus 1, NL43, 100% normal human serum (NHS); MT4-GFP cells infected with HIV-1 NL4-3; IP or IC50 from 4-parameter dose response curve; read-out: WILD TYPE CELL ASSAY Viking IP (100% NHS)
endpoint.name: IC50

Completed entries (count: 5):
compound	IC50
Cc1cc(CNC(=O)c2cn3c(c(O)c2=O)C(=O)[C@@]2(C)CCCO[C@H]2C3)ccc1F (single isomer, unassigned)	> 8400 nM
C[C@]12CCCC[C@@]1(O)Cn1cc(C(=O)NCc3ccc(F)c(Cl)c3)c(=O)c(O)c1C2=O	151 nM
CO[C@]12CCCC[C@@]1(C)C(=O)c1c(O)c(=O)c(C(=O)NCc3ccc(F)cc3F)cn1C2	> 8000 nM
C[C@]12CCCN[C@H]1Cn1cc(C(=O)NCc3ccc(F)cc3F)c(=O)c(O)c1C2=O	62 nM
CN1CCC[C@]2(C)C(=O)c3c(O)c(=O)c(C(=O)NCc4ccc(F)cc4F)cn3C[C@H]12	53 nM

Record IC50 per entry; entries follow.
1. C[C@@]12COCO[C@H]1Cn1cc(C(=O)NCc3ccc(F)cc3F)c(=O)c(O)c1C2=O
2. COC12CCCC1(C)C(=O)c1c(O)c(=O)c(C(=O)NCc3ccc(F)c(F)c3F)cn1C2 (stereo not shown)

Solution:
484 nM
4930 nM

###

Tested on: HIV-1 (NL4-3 strain)
protocol.notes: microbe, parasite or virus in culture
Assay type: cell-based
reported.conditions: Human immunodeficiency virus 1, NL43, 100% normal human serum (NHS); MT4-GFP cells infected with HIV-1 NL4-3; IP or IC50 from 4-parameter dose response curve; read-out: WILD TYPE CELL ASSAY Viking IP (100% NHS)
Hi there, I'd appreciate the recorded IC50 for every entry that follows.

Completed entries (count: 4):
compound	IC50
C[C@]12CCCO[C@H]1Cn1cc(C(=O)NCc3cc(F)c(F)c(F)c3)c(=O)c(O)c1C2=O (single isomer, unassigned) [Compound 28]	> 8400 nM
COC1Cn2cc(C(=O)NCc3ccc(F)cc3F)c(=O)c(O)c2C(=O)C1(C)C (stereo not shown) [Compound 5]	102 nM
COCCC[C@@]1(C)C(=O)c2c(O)c(=O)c(C(=O)NCc3ccc(F)cc3F)cn2C[C@@H]1OC [Compound 76]	35 nM
Cc1nc(CNC(=O)c2cn3c(c(O)c2=O)C(=O)[C@@]2(C)CCCO[C@H]2C3)sc1C [Compound 31]	> 8400 nM

Record IC50 per entry; entries follow.
1. C[C@@]12CCCO[C@@H]1Cn1cc(C(=O)NCc3ccc(F)c(F)c3F)c(=O)c(O)c1C2=O (single isomer, unassigned) [Compound 17]
2. COCC[C@@]1(C)C(=O)c2c(O)c(=O)c(C(=O)NCc3c(F)cccc3F)cn2C[C@@H]1OC [Compound 70]
3. C[C@]12CCCO[C@H]1Cn1cc(C(=O)NCc3ccccc3F)c(=O)c(O)c1C2=O (single isomer, unassigned) [Compound 21]

Solution:
117 nM
80 nM
385 nM

###

Tested on: HIV-1 (NL4-3 strain)
protocol.notes: microbe, parasite or virus in culture
Assay type: cell-based
reported.conditions: Human immunodeficiency virus 1, NL43, 100% normal human serum (NHS); MT4-GFP cells infected with HIV-1 NL4-3; IP or IC50 from 4-parameter dose response curve; read-out: WILD TYPE CELL ASSAY Viking IP (100% NHS)
Hi there, I'd appreciate the recorded log10(IC50) for every entry that follows.
The base-10 logarithm of IC50, taken with IC50 in nM, is what appears here.

Completed entries (count: 5):
compound	log10(IC50)
COCCCO[C@@]12CCCC[C@]1(C)C(=O)c1c(O)c(=O)c(C(=O)NCc3ccc(F)cc3F)cn1C2 [Compound 116]	2.41
C[C@@]12CCCO[C@@H]1Cn1cc(C(=O)NCc3ccc(F)cc3)c(=O)c(O)c1C2=O (single isomer, unassigned) [Compound 18]	2.50
CC[C@]12CCCO[C@@H]1Cn1cc(C(=O)NCc3ccc(F)cc3F)c(=O)c(O)c1C2=O [Compound 120]	2.06
COC12CCCC1(C)C(=O)c1c(O)c(=O)c(C(=O)NCc3ccc(F)cc3)cn1C2 (stereo not drawn) [Compound 106]	3.52
C[C@]12CCCO[C@H]1Cn1cc(C(=O)NCc3ccc(F)cc3)c(=O)c(O)c1C2=O (single isomer, unassigned) [Compound 19]	2.85

Record log10(IC50) per entry; entries follow.
1. COCCC[C@@]1(C)C(=O)c2c(O)c(=O)c(C(=O)NCc3c(F)cc(F)cc3F)cn2C[C@@H]1OC [Compound 92]
2. COCCC[C@@]1(C)C(=O)c2c(O)c(=O)c(C(=O)NCc3ccccc3F)cn2C[C@@H]1OC [Compound 88]

Solution:
1: 1.77; 2: 1.80

###

Hi there, I'd appreciate the recorded IC50 for every entry that follows.
System: HIV-1 (NL4-3 strain)
protocol.notes: microbe, parasite or virus in culture
Type: cell-based
reported.conditions: Human immunodeficiency virus 1, NL43, 100% normal human serum (NHS); MT4-GFP cells infected with HIV-1 NL4-3; IP or IC50 from 4-parameter dose response curve; read-out: WILD TYPE CELL ASSAY Viking IP (100% NHS)
One number for each entry, in nM.

compound	target.entity	endpoint.name	result
C[C@@]12CCCC[C@]1(O)Cn1cc(C(=O)NCc3ccc(F)cc3F)c(=O)c(O)c1C2=O [Compound 94]	HIV-1 (NL4-3 strain)	IC50	282

Record IC50 per entry; entries follow.
1. C[C@]12CCCC[C@@]1(O)Cn1cc(C(=O)NCc3ccc(F)cc3F)c(=O)c(O)c1C2=O [Compound 95]
2. C[C@@]12CCCO[C@@H]1Cn1cc(C(=O)NCc3ccc(F)c(Cl)c3)c(=O)c(O)c1C2=O (single isomer, unassigned) [Compound 16]
3. COCCC[C@@]1(C)C(=O)c2c(O)c(=O)c(C(=O)NCc3c(F)cccc3F)cn2C[C@@H]1OC [Compound 84]

Solution:
[41, 257, 31]

###

Test system: HIV-1 (NL4-3 strain)
protocol.notes: microbe, parasite or virus in culture
Type: cell-based
reported.conditions: Human immunodeficiency virus 1, NL43, 100% normal human serum (NHS); MT4-GFP cells infected with HIV-1 NL4-3; IP or IC50 from 4-parameter dose response curve; read-out: WILD TYPE CELL ASSAY Viking IP (100% NHS)
pIC50: −log10 of the molar value.
Rule: pIC50 under 6 gives 0 (no), otherwise 1 (yes).

Recorded results for 4 compounds are shown here.
compound	group
COCCO[C@]12CCCC[C@@]1(C)C(=O)c1c(O)c(=O)c(C(=O)NCc3ccc(F)cc3F)cn1C2	1 (yes)
COCO[C@@]12CCCC[C@]1(C)C(=O)c1c(O)c(=O)c(C(=O)NCc3ccc(F)cc3F)cn1C2	1 (yes)
C[C@]12CCCO[C@H]1Cn1cc(C(=O)NCc3ccc(F)c(Br)c3)c(=O)c(O)c1C2=O (single isomer, unassigned)	0 (no)
Cc1c(F)ccc(CNC(=O)c2cn3c(c(O)c2=O)C(=O)[C@@]2(C)CCCO[C@H]2C3)c1F (single isomer, unassigned)	0 (no)

Exercise: Confirm if pIC50 reported for the compound C[C@]12CCCO[C@H]1Cn1cc(C(=O)NCc3cccc(Cl)c3F)c(=O)c(O)c1C2=O (single isomer, unassigned) is 6 or above.
Solution: 0 (no)

Exercise: Confirm if pIC50 reported for the compound `C[C@]12CCCCC[C@@]1(O)Cn1cc(C(=O)NCc3ccc(F)cc3F)c(=O)c(O)c1C2=O` is 6 or above.
Solution: 1 (yes)

Exercise: Confirm if pIC50 reported for the compound CC1(C)C(=O)c2c(O)c(=O)c(C(=O)NCc3ccc(F)cc3F)cn2CC1O (centres unmarked) is 6 or above.
Solution: 0 (no)

Exercise: Confirm if pIC50 reported for the compound `CO[C@]12CCCCC[C@@]1(C)C(=O)c1c(O)c(=O)c(C(=O)NCc3ccc(F)cc3F)cn1C2` is 6 or above.
Solution: 0 (no)

Exercise: Confirm if pIC50 reported for the compound COC12CCCC1(C)C(=O)c1c(O)c(=O)c(C(=O)NCc3ccc(F)cc3F)cn1C2 (centres unmarked) is 6 or above.
Solution: 0 (no)

Exercise: Confirm if pIC50 reported for the compound C[C@]12CCCO[C@H]1Cn1cc(C(=O)NCc3c(F)cccc3F)c(=O)c(O)c1C2=O (single isomer, unassigned) is 6 or above.
Solution: 1 (yes)

Exercise: Confirm if pIC50 reported for the compound CC1(O)CCn2cc(C(=O)NCc3ccc(F)cc3F)c(=O)c(O)c2C1=O (racemic) is 6 or above.
Solution: 0 (no)
